# credit: the supplement of paper PMC6555819

System: RARb:RXRa (NR concentration 270 nM, RXRa partner concentration 90 nM)
PROCEDURE_DETAILS: PBM binding z-score (relative to random genomic background probes); higher = stronger binding; sequences stand for … in GC…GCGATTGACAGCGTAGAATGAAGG
MEASURE_NAME: PBM binding z-score
Just the number, please, no unit attached.

Query :: Output measured PBM binding z-score for this item: `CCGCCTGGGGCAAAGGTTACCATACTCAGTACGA`
Result :: 2.47

Query :: Output measured PBM binding z-score for this item: `TAGCCTAGGTCATTCAGGGGCCGGTATAGAAAGC`
Result :: 3.79

Query :: Output measured PBM binding z-score for this item: `CCGACTGGGGCAAAGGTTACAATACTCAGTACGA`
Result :: 2.55

Query :: Output measured PBM binding z-score for this item: `GATACAGGGTCAGCTATAGGCCAGAGTATGGAAA`
Result :: 4.02

Query :: Output measured PBM binding z-score for this item: `CATCCAAGGTCATAGGAGGTCAGTGAAGACAGAT`
Result :: 5.38

Query :: Output measured PBM binding z-score for this item: `GCTGCTAGGTCAACTGGTGGTCAGCTAAAGCTCG`
Result :: 4.23

Query :: Output measured PBM binding z-score for this item: `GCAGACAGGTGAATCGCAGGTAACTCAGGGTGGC`
Result :: 0.443

Query :: Output measured PBM binding z-score for this item: `TCTCCGAGGACACGAAAGGTCAGAGCTCGACATC`
Result :: 4.47

Query :: Output measured PBM binding z-score for this item: `ATCTCTAGGTGAAGTTCAGTGAAAGATCGATAGA`
Result :: 1.7

Query :: Output measured PBM binding z-score for this item: `AGAATGAGATTATTAAGATCAGGGAATTGCGGTC`
Result :: -0.639

Query :: Output measured PBM binding z-score for this item: `CCTGCTAGGACATGGTCAGCTAATCTACAGTATG`
Result :: 0.0895

Query :: Output measured PBM binding z-score for this item: `ACAGACAGGTGATGGAGGTAACTCAGGCTATCAT`
Result :: 0.173
